- TGT: T1, human LPAM-1-Fc (alpha4-Fc/beta7-Fc heterodimer) (human)
- T1 construct: Soluble heterodimer from CHO cells, Protein A purified
- TEST: SPR (BIACORE), LPAM-1-Fc captured by anti-human IgG, 1 mM MnCl2, 1:1 Langmuir
I'd appreciate it if you marked entries yes (1) when binding affinity for LPAM-1-Fc relative to human 2D-VCAM-1 is lower than 8 fold and no (0) when it is not.

2D-VCAM-1 variant Clone 59 (ligand, also called Clone 059; not shown: His tag) FKIETTPESRYLAQIGDSVSLTCSTTGCESPFFSWRPLLDSPLNGKVTNEGTTSTLTMNPVSFGNEHSYLCTATCESRKLEKGIQVEIYSFPKDPEIHLSGPLEAGKPITVKCSVADVYPFDRLEIDLLKGDHLMKSQEFFEDAAWKSLETKSLEVTFTPVIEDIGKVLVCRAKLHIDEMDSVPTVRQAVKELQVYISP
no (0)
Q38L-2D-VCAM-1 (ligand, also called Q38L 2D-VCAM-1 polypeptide; not shown: His tag) FKIETTPESRYLAQIGDSVSLTCSTTGCESPFFSWRTLIDSPLNGKVTNEGTTSTLTMNPVSFGNEHSYLCTATCESRKLEKGIQVEIYSFPKDPEIHLSGPLEAGKPITVKCSVADVYPFDRLEIDLLKGDHLMKSQEFLEDADRKSLETKSLEVTFTPVIEDIGKVLVCRAKLHIDEMDSVPTVRQAVKELQVYISP
no (0)
2D-VCAM-1 variant Clone 46 (ligand, also called Clone 046; not shown: His tag) FKIETTPESRYLAQIGDSVSLTCSTTGCESPFFSWRPQLDAPLNGKVTNEGTTSTLTMNPVSFGNEHSYLCTATCESRKLEKGIQVEIYSFPKDPEIHLSGPLEAGKPITVKCSVADVYPFDRLEIDLLKGDHLMKSQEFLEDADRKSLETKSLEVTFTPVIEDIGKVLVCRAKLHIDEMDSVPTVRQAVKELQVYISP
no (0)

Consider the additional binder presented here.
Ask | Take the binder human 2D-VCAM-1 (ligand, also called wild type 2D-VCAM-1; wt-2D-VCAM-1; not shown: His tag) FKIETTPESRYLAQIGDSVSLTCSTTGCESPFFSWRTQIDSPLNGKVTNEGTTSTLTMNPVSFGNEHSYLCTATCESRKLEKGIQVEIYSFPKDPEIHLSGPLEAGKPITVKCSVADVYPFDRLEIDLLKGDHLMKSQEFLEDADRKSLETKSLEVTFTPVIEDIGKVLVCRAKLHIDEMDSVPTVRQAVKELQVYISP and say whether its binding affinity for LPAM-1-Fc relative to human 2D-VCAM-1 is less than 8 fold.
Reply | yes (1)
